- MEASURED_TARGET: 5-HT3 receptors (Rattus norvegicus, UniProt P35563)
- Sequence (P35563 24-483): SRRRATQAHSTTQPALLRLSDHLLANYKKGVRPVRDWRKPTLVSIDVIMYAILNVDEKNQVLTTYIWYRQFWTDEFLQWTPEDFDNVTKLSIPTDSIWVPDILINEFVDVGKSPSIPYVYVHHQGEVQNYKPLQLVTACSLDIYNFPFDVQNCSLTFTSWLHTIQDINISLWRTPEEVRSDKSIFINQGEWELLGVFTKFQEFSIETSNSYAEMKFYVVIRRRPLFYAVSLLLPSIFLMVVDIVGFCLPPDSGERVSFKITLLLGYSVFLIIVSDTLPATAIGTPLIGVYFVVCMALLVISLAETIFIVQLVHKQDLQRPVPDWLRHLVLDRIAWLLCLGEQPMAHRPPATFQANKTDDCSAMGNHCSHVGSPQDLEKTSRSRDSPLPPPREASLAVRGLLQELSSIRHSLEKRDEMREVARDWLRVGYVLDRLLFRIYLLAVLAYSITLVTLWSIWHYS
ENDPOINT_LABEL: Ki

compound="O=C1C2CCCN2C(=O)N1CCCCNCCOc1cccc2ccccc12 (stereo not shown)" result="> 1000 nM"
compound=O=C1CSC(=O)N1CCCCNCCOc1ccccc1 result="> 10000 nM"
compound="O=C1C2CCCN2C(=O)N1CCCCNCCOc1ccccc1 (stereo not shown)" result="> 1000 nM"
compound="O=C1C2CCCN2C(=O)N1CCCCNCc1nc2ccccc2[nH]1 (stereo not shown)" result="> 1000 nM"

###

A set of molecules tested on 5-HT4 receptors (Rattus norvegicus, UniProt Q62758), with measured pKi:
pKi: −log10 of the molar value.
ENDPOINT_LABEL: pKi

molecule="O=C1C2CCCN2C(=O)N1CCCCNCCOc1cccc2ccccc12 (centres unmarked)" result="< 5.00"
molecule="COc1ccccc1CCCCNCCCCN1C(=O)C2CCCN2C1=O (centres unmarked)" result="< 5.00"
molecule="COc1ccccc1CCCNCCCCN1C(=O)C2CCCN2C1=O (centres unmarked)" result="< 5.00"
molecule="COc1ccccc1CCCNCCCN1C(=O)C2CCCN2C1=O (centres unmarked)" result="< 6.00"
molecule=O=C1CSC(=O)N1CCCCNCCOc1ccccc1 result="< 6.00"

###

- MEASURED_TARGET: 5-HT3 receptors (Rattus norvegicus, UniProt P35563)
- Construct: (c) 5-HT3 receptors, [^3H]LY 278584, rat cerebral cortex; from tissue; host or cells: rat cerebral cortex
- ASSAY_COMMENT: Radioligand displacement, 5-HT3 receptors, [3H]LY 278584
- Type: binding
- TEST_PARAMETERS: [3H]LY 278584, rat cerebral cortex; read-out: Ki ± E.E. 5-HT3
ENDPOINT_LABEL: Ki

molecule="COc1ccccc1CCCNCCCN1C(=O)C2CCCN2C1=O (centres unmarked)" result="> 10 µM"
molecule="COc1ccccc1CCCNCCCCN1C(=O)C2CCCN2C1=O (centres unmarked)" result="> 10 µM"
molecule="COc1ccccc1CCCCNCCCCN1C(=O)C2CCCN2C1=O (centres unmarked)" result="> 1 µM"
molecule="O=C1C2SCCN2C(=O)N1CCCCNCC1CCc2ccccc2O1 (racemic)" result="> 10 µM"
molecule="O=C1C2CCCN2C(=O)N1CCCCNCCc1ccc2ccccc2c1 (centres unmarked)" result="> 10 µM"

###

- MEASURED_TARGET: 5-HT1A (Rattus norvegicus, UniProt P19327)
- Sequence (P19327 1-422): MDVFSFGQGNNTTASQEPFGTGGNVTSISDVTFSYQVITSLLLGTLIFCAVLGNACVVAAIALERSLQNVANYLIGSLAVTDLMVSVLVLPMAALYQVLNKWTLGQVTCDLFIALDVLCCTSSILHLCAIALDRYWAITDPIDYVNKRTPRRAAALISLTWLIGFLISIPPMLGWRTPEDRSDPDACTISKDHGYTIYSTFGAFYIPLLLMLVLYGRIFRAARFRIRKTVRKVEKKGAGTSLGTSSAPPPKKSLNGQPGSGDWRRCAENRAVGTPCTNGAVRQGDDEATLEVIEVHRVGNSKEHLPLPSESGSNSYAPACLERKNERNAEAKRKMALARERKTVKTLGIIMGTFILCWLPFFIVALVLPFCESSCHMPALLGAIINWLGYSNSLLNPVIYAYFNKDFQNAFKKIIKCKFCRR
ENDPOINT_LABEL: Ki (µM)

molecule="O=C1CSC(=O)N1CCCCNCC1CCc2ccccc2O1 (racemic)" comparison_symbol== measured_number=0.0301
molecule="O=C1C2CCCN2C(=O)N1CCCCNCCOc1cccc2ccccc12 (centres unmarked)" comparison_symbol== measured_number=0.0024
molecule="O=C1C2CCCN2C(=O)N1CCCCNCCc1ccc2ccccc2c1 (centres unmarked)" comparison_symbol== measured_number=0.0432
molecule="COc1ccccc1CCNCCCCN1C(=O)C2CCCN2C1=O (centres unmarked)" comparison_symbol== measured_number=0.868
molecule="O=C1C2CCCN2C(=O)N1CCCCNCCOc1ccccc1 (centres unmarked)" comparison_symbol== measured_number=0.0255
molecule="COc1ccccc1CCCCNCCCCN1C(=O)C2CCCN2C1=O (centres unmarked)" comparison_symbol== measured_number=0.138
molecule="O=C1C2SCCN2C(=O)N1CCCCNCC1CCc2ccccc2O1 (racemic)" comparison_symbol== measured_number=0.0199
molecule="O=C1C2CCCN2C(=O)N1CCCCNCc1nc2ccccc2[nH]1 (centres unmarked)" comparison_symbol=> measured_number=10
molecule="COc1ccccc1CCCNCCCN1C(=O)C2CCCN2C1=O (centres unmarked)" comparison_symbol=> measured_number=1
molecule=O=C1CSC(=O)N1CCCCNCCc1cccc2ccccc12 comparison_symbol== measured_number=0.015
molecule="O=C1CSC(=O)N1CCCCCCNCC1CCc2ccccc2O1 (racemic)" comparison_symbol== measured_number=0.0013
molecule=O=C1CSC(=O)N1CCCCNCCOc1ccccc1 comparison_symbol== measured_number=0.0098
molecule="COc1ccccc1CCCNCCCCN1C(=O)C2CCCN2C1=O (centres unmarked)" comparison_symbol== measured_number=0.0739
molecule="O=C1C2CSCN2C(=O)N1CCCCNCC1CCc2ccccc2O1 (racemic)" comparison_symbol== measured_number=0.0132

###

Some compounds, each annotated with its measured % Maximum inhibition.
- MEASURED_TARGET: 5-human HT1A receptor (Homo sapiens)
- Construct: expressed in transfected cells; host or cells: HeLa cells
- Sequence (P08908 whole entry): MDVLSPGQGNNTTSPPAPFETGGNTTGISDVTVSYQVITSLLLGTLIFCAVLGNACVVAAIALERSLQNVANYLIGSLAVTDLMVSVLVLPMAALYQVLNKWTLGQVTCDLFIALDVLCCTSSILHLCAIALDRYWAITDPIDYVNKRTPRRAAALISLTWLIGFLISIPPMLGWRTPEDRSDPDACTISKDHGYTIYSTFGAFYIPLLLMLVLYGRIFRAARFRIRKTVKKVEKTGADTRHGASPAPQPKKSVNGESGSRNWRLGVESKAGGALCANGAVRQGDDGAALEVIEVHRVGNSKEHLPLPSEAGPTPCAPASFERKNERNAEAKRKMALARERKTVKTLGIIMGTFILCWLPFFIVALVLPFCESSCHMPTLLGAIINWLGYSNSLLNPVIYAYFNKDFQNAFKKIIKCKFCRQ
- ASSAY_COMMENT: Test on adenylate cyclase in He-La cells (inhibition of forskolin stimulation)
- Type: cell-based
- TEST_PARAMETERS: inhibition of the activation induced by forskolin
ENDPOINT_LABEL: % Maximum inhibition (%)

compound="O=C1C2CSCN2C(=O)N1CCCCNCC1CCc2ccccc2O1 (racemic)" measurement_units=% measured_number=89.3
compound="O=C1CSC(=O)N1CCCCNCC1CCc2ccccc2O1 (racemic)" measurement_units=% measured_number=89.6
compound="O=C1C2CCCN2C(=O)N1CCCCNCCOc1ccccc1 (stereo not shown)" measurement_units=% measured_number=87.4
compound="O=C1C2SCCN2C(=O)N1CCCCNCC1CCc2ccccc2O1 (racemic)" measurement_units=% measured_number=94.5
